The reported numbers originate from ChEMBL document CHEMBL1201862.

Tested on: UO-31
Test: NCI tumour cell line growth inhibition, 48 h
Active and inactive are the calls of the source. No stated cut-off is given here; in the data, active = GI50 up to about 1.1 µM and inactive = higher.
GI50 values for the compounds below.
MEASURED PROPERTY: GI50

INSERT INTO results (compound, assay_result) VALUES
  ('CC(=O)OC1OC2C(NC(=O)OC(C)(C)C)C1CC2(OCc1ccccc1)OCc1ccccc1 (stereo not given)', '13.1 µM (inactive)'),
  ('Cc1nn2c(nc1=O)sc1ccc3ccccc3c12', '> 100 µM (inactive)'),
  ('Cn1nc2ccc([N+](=O)[O-])cc2[n+]1[O-]', '> 100 µM (inactive)'),
  ('Clc1ccccc1-c1nc(-c2ccncc2)no1 [PIFEXOLE]', '47.4 µM (inactive)'),
  ('CCc1n[nH]c(=O)n1N1C(=O)C2CC=CCC2C1=O (stereo not given)', '> 100 µM (inactive)'),
  ('COc1cc([C@@H]2c3cc4c(cc3[C@@H](NCCNCCO)[C@H]3COC(=O)[C@H]23)OCO4)cc(OC)c1O', '11.6 µM (inactive)'),
  ('C/C(CCOC1CCCCO1)=C(\C)[Si](C)(C)C (stereo not given)', '> 100 µM (inactive)'),
  ('CC1CC(C#N)=C2NCCCCN2C1=O (stereo not given)', '> 100 µM (inactive)'),
  ('Nc1nc(N)c2cc(Sc3ccc4ccccc4c3)ccc2n1', '2.76 µM (inactive)'),
  ('CC[C@]1(Cc2ccc(OC)c(OC)c2)[C@@H]2C[C@@H](C(=O)OC)ON2O[C@H](OC2CCCC2(c2ccccc2)c2ccccc2)[C@@H]1OC(C)=O (stereo not given in full)', '> 100 µM (inactive)');

----------
System: NCI-H522
Experiment: NCI tumour cell line growth inhibition, 48 h
The source made the active and inactive calls. Rule as the data show it: active = GI50 up to about 1.1 µM and inactive = higher.
Outcome codes: active, inactive

INSERT INTO assay_data (compound, class_name) VALUES
  ('C[C@@]12CCC(=O)c3coc(c31)C(=O)c1cc3c(cc12)C(=O)C=CC3=O', 'inactive'),
  ('CCOC(=O)/C(=C/c1ccc(Cl)cc1)N(CC)CC', 'inactive'),
  ('COc1cc(C(=O)NC(CCN)(c2ccccc2)c2ccccc2)cc(OC)c1OC', 'inactive'),
  ('O=c1oc2ccccc2cc1-c1nc2ccc([N+](=O)[O-])cc2o1', 'inactive'),
  ('CCO[C@@H]1C2C=CC(C2)[C@H]1[N+](=O)[O-] (stereo partly drawn)', 'inactive'),
  ('Cc1cccc2c(N)c3cccc(C(=O)NCCCNCCN)c3nc12', 'active'),
  ('CC1=C(C(=O)CC(=O)C(=O)Nc2ccccc2C)Sc2ccccc2N1', 'inactive'),
  ('O=C(NNC(=S)Nc1ccccc1)c1cc(-c2ccccc2)nc2ccccc12', 'inactive'),
  ('CC12CCC(C(=O)n3c1nc1ccccc13)C(C)(C)O2 (stereo not drawn)', 'inactive'),
  ('COC12C=CC(CC1)C(C)(C)C2OS(C)(=O)=O (stereo not drawn)', 'inactive'),
  ('O=c1c2cc(Br)ccc2[nH]c(=S)n1-c1ccc(Br)cc1', 'inactive'),
  ('CCCC(=O)OCC1OC(n2cc(F)c(=O)[nH]c2=O)CC1OC(=O)CCC (stereo not drawn)', 'inactive'),
  ('COc1ccc(-c2nc(N)c(C#N)c3c2CCS(=O)(=O)c2ccc(C)cc2-3)cc1OC', 'inactive'),
  ('N=C(N)NS(=O)(=O)c1ccc(NC(=O)c2ccc3nc4ccccc4c(O)c3c2)cc1', 'inactive'),
  ('O=[N+]([O-])c1ccc(N2C[N+](c3ccccc3)=NC(c3ccccc3)=N2)cc1', 'inactive'),
  ('CN(CC(=O)O)c1ncc2c(n1)-c1ccccc1CC2', 'inactive'),
  ('CCOC(=O)C1(CC(=O)O)CCCC1=O (stereo not drawn)', 'inactive'),
  ('OC(NN=C1CCCC1)(C(F)(F)Cl)C(F)(F)Cl', 'inactive'),
  ('Cc1nc2ccccc2c(=O)[nH]1', 'inactive'),
  ('O=C(O)CSc1nnc(-c2ccc(O)cc2)[nH]1', 'inactive'),
  ('COC(=O)C1=CC(=O)OC1(OO)c1ccccc1 (stereo not drawn)', 'inactive'),
  ('CCN(CC)C(=S)SS(=O)(=O)c1ccc(Cl)cc1', 'active'),
  ('COC(=O)c1nc(N)nc(O)c1-c1ccc(Cl)cc1', 'inactive');
